Test system: UACC-62 melanoma
Assay: NCI tumour cell line growth inhibition, 48 h; in the data active means GI50 below about 0.43 µM; inactive means the rest
Answer with one of the outcomes true (active), false (inactive)

>  <compound>
COc1ccc2ncnc(Nc3ccc(OCc4ccccc4)cc3)c2c1

>  <classification>
false

$$$$

Task item: Hello, I am checking results. What call was entered for COCCn1cc(-c2nc(-c3cc4cccnc4[nH]3)cs2)c2cc(OC)ccc21 ?
Reply: false

Task item: Same thing, different compound: COc1cc(-c2nc3sccn3c2-c2ccnc(NCCNS(=O)(=O)c3ccc(F)cc3)n2)ccc1F
Reply: false

Task item: Same thing, different compound: CN1CCN(C(=O)COc2ccc(C34CC5CC(CC(C5)C3)C4)cc2)CC1
Reply: false

Task item: Same thing, different compound: Cc1ccc(NC2=C3CCCCC3OC2=O)cc1 (stereo unspecified)
Reply: false

Task item: Same thing, different compound: CC(C)[C@@H]1NC(=O)[C@]2(C)CSC(=N2)c2ccnc(c2)CNC(=O)C[C@@H](/C=C/CCS)OC1=O
Reply: true

---

Test system: HT29 colon
Experiment: NCI tumour cell line growth inhibition, 48 h
In this section, each of the compounds is paired with its reported TGI.
Report only the number, with the unit µM understood.

>  <compound>
CSC(=O)c1sc(SC)[n+](-c2ccccc2)c1O

>  <assayed system>
HT29 colon

>  <TGI, µM>
46.5

$$$$
>  <compound>
COc1c(CC(C)=O)ccc2c1C(=O)c1ccc(C=O)c(OC(C)=O)c1C2=O

>  <assayed system>
HT29 colon

>  <TGI, µM>
37.9

$$$$
>  <compound>
CC(C)[C@@H]1NC(=O)[C@]2(C)CSC(=N2)c2ccnc(c2)CNC(=O)C[C@@H](/C=C/CCS)OC1=O

>  <assayed system>
HT29 colon

>  <TGI, µM>
1.57

$$$$
>  <compound>
COC(=O)[C@]1(C)CCC[C@@]2(C)C1CC[C@@]13C=C(C(C)C)[C@@H](CC1=O)CC23 (some centres not stated)

>  <assayed system>
HT29 colon

>  <TGI, µM>
40.5

$$$$
>  <compound>
COc1cccc(-c2cc(=O)c3cc(N4CCCCC4)ccc3[nH]2)c1

>  <assayed system>
HT29 colon

>  <TGI, µM>
0.0316

$$$$

Task item: Given the compound C=C1C[C@H](O)[C@H](Br)C(C)(C)[C@@]12CCC(C)=C(Cl)C2 , what is its reported TGI?
Reply: 1.45

Task item: Same thing, different compound: COc1cc(-c2cccs2)sc1-c1cccs1
Reply: 53.3

Task item: Same thing, different compound: CCOc1ccc(NC2=CC(=O)C(=O)c3ccccc32)cc1
Reply: 15.8

Task item: Same thing, different compound: Cc1ccc(C(=O)OC(C(=O)O)C(OC(=O)c2ccc(C)cc2)C(=O)O)cc1 (configuration not stated) (tested in a mixture with another compound)
Reply: 10.2

---

In this section, each of the molecules is paired with its reported GI50.
System: SNB-19 CNS
Experiment: NCI tumour cell line growth inhibition, 48 h

# annotated cases, reported GI50 shown
>  <chemical structure>
c1ccc(Nc2ncc(-c3ccccc3)o2)cc1

>  <GI50>
> 25 µM

$$$$
>  <chemical structure>
CN1CCN(c2ccc(Nc3ncc(Cl)c(NC[C@@H]4CCCO4)n3)cc2)CC1

>  <GI50>
3.69 µM

$$$$
>  <chemical structure>
Cn1cc(-c2cc3c(N4CCN(c5ncc([C@@](C)(N)c6ccc(F)cc6)cn5)CC4)ncnn3c2)cn1

>  <GI50>
9.63 µM

$$$$

Next molecule, please.
Task item: Given the molecule COCCn1cc(-c2nc(-c3cc4cccnc4[nH]3)cs2)c2cc(OC)ccc21 , what is its reported GI50?
Reply: 6.48 µM
